The reported numbers originate from the CheMixHub viscosity set.

assay_notes: xn = mol fraction of the nth substance listed
conditions_used: 293.15 K; 101.33 kPa; x2 = 0.9
± gives the uncertainty stated by the source.
Listed below: viscosity values for each entry.

compound: C[N+](=O)[O-] + CCO
viscosity: 1.006 ± 0.009 mPa·s
//
compound: C[N+](=O)[O-] + CC(C)O
viscosity: 1.698 ± 0.015 mPa·s
//
compound: C[N+](=O)[O-] + CO
viscosity: 0.553 ± 0.005 mPa·s
//
compound: C[N+](=O)[O-] + CCCO
viscosity: 1.693 ± 0.015 mPa·s

###

assay_notes: xn = mol fraction of the nth substance listed
conditions_used: 303.15 K; 101.33 kPa; x2 = 0.9
readout_name: viscosity (mPa·s)

molecule: C[N+](=O)[O-] + CC(C)O
result_number: 1.302

molecule: C[N+](=O)[O-] + CCO
result_number: 0.835

molecule: C[N+](=O)[O-] + CCCO
result_number: 1.349

molecule: C[N+](=O)[O-] + CO
result_number: 0.482

###

conditions_used: 298.15 K; 101 kPa

compound: CCC1(C)OC1C#N (centres undefined)
viscosity, mPa·s: 1.34

compound: OCC1CC1
viscosity, mPa·s: 3.447

compound: CCCCCCCCCCCC[N+](C)(C)Cc1ccccc1.O=S(=O)([N-]S(=O)(=O)C(F)(F)F)C(F)(F)F
viscosity, mPa·s: 1425

compound: CC1CCC(=O)O1 (centres undefined)
viscosity, mPa·s: 1.873

###

Listed below: viscosity values for each entry.
assay_notes: xn = mol fraction of the nth substance listed
conditions_used: 303.15 K; 101.33 kPa; x2 = 0.65
readout_name: viscosity (mPa·s)

compound: C[N+](=O)[O-] + CCCO
readout_name: viscosity
result_number: 0.886
--
compound: C[N+](=O)[O-] + CCO
readout_name: viscosity
result_number: 0.633
--
compound: C[N+](=O)[O-] + CC(C)O
readout_name: viscosity
result_number: 0.811
--
compound: C[N+](=O)[O-] + CO
readout_name: viscosity
result_number: 0.458

###

Listed below: viscosity values for each entry.
assay_notes: xn = mol fraction of the nth substance listed
conditions_used: 293.15 K; 101.33 kPa; x2 = 0.85

compound: C[N+](=O)[O-] + CCC(C)O
unit_tag: mPa·s
viscosity: 1.995
--
compound: C[N+](=O)[O-] + CCO
unit_tag: mPa·s
viscosity: 0.936
--
compound: C[N+](=O)[O-] + CC(C)O
unit_tag: mPa·s
viscosity: 1.485
--
compound: C[N+](=O)[O-] + CCCO
unit_tag: mPa·s
viscosity: 1.519

###

Listed below: viscosity values for each entry.
assay_notes: xn = mol fraction of the nth substance listed
conditions_used: 313.15 K; 101.33 kPa; x2 = 0.8
readout_name: viscosity (mPa·s)

compound: C[N+](=O)[O-] + CCO
result_number: 0.625
--
compound: C[N+](=O)[O-] + CC(C)(C)O
result_number: 1.106
--
compound: C[N+](=O)[O-] + CC(C)O
result_number: 0.837
--
compound: C[N+](=O)[O-] + CCC(C)O
result_number: 1.03
--
compound: C[N+](=O)[O-] + CCCO
result_number: 0.912
--
compound: C[N+](=O)[O-] + CO
result_number: 0.412

###

assay_notes: xn = mol fraction of the nth substance listed
conditions_used: 313.15 K; 101.33 kPa; x2 = 0.75
Listed below: viscosity values for each entry.

compound: C[N+](=O)[O-] + CC(C)(C)O
viscosity (mPa·s): 0.966

compound: C[N+](=O)[O-] + CCC(C)O
viscosity (mPa·s): 0.933

compound: C[N+](=O)[O-] + CCO
viscosity (mPa·s): 0.595

compound: C[N+](=O)[O-] + CCCO
viscosity (mPa·s): 0.845

compound: C[N+](=O)[O-] + CC(C)O
viscosity (mPa·s): 0.764

###

assay_notes: xn = mol fraction of the nth substance listed
conditions_used: 303.15 K; 101.33 kPa; x2 = 0.75
Listed below: viscosity values for each entry.

compound: C[N+](=O)[O-] + CCCO
viscosity / mPa·s: 1.023
--
compound: C[N+](=O)[O-] + CC(C)(C)O
viscosity / mPa·s: 1.32
--
compound: C[N+](=O)[O-] + CCO
viscosity / mPa·s: 0.698
--
compound: C[N+](=O)[O-] + CCC(C)O
viscosity / mPa·s: 1.187
--
compound: C[N+](=O)[O-] + CC(C)O
viscosity / mPa·s: 0.937

###

Listed below: viscosity values for each entry.
assay_notes: xn = mol fraction of the nth substance listed
conditions_used: 293.15 K; 101.33 kPa; x2 = 0.65

molecule: C[N+](=O)[O-] + CO
unit_tag: mPa·s
viscosity: 0.525

molecule: C[N+](=O)[O-] + CCCO
unit_tag: mPa·s
viscosity: 1.081

molecule: C[N+](=O)[O-] + CC(C)O
unit_tag: mPa·s
viscosity: 1

molecule: C[N+](=O)[O-] + CCO
unit_tag: mPa·s
viscosity: 0.75

###

Listed below: viscosity values for each entry.
assay_notes: xn = mol fraction of the nth substance listed
conditions_used: 303.15 K; 101.33 kPa; x2 = 0.95

molecule: C[N+](=O)[O-] + CCC(C)O
viscosity [mPa·s]: 2.02

molecule: C[N+](=O)[O-] + CC(C)(C)O
viscosity [mPa·s]: 2.527

molecule: C[N+](=O)[O-] + CCCO
viscosity [mPa·s]: 1.51

molecule: C[N+](=O)[O-] + CC(C)O
viscosity [mPa·s]: 1.503

molecule: C[N+](=O)[O-] + CO
viscosity [mPa·s]: 0.491

molecule: C[N+](=O)[O-] + CCO
viscosity [mPa·s]: 0.901

###

assay_notes: xn = mol fraction of the nth substance listed
conditions_used: 303.15 K; 101.33 kPa; x2 = 0.85

compound: C[N+](=O)[O-] + CCO
viscosity, mPa·s: 0.782
//
compound: C[N+](=O)[O-] + CC(C)O
viscosity, mPa·s: 1.154
//
compound: C[N+](=O)[O-] + CCC(C)O
viscosity, mPa·s: 1.5

###

conditions_used: 303.15 K; 101 kPa
± gives the uncertainty stated by the source.
readout_name: viscosity

compound: CCCCOCCOCCOCCO
readout_name: viscosity
result: 6.528 ± 0.04 mPa·s
--
compound: CCCCCCCCCCCCN
readout_name: viscosity
result: 2.658 ± 0.029 mPa·s
--
compound: CCC1(C)OC1C#N (stereo not drawn)
readout_name: viscosity
result: 1.19 ± 0.03 mPa·s
